- study.system: human interleukin 13 receptor alpha 1 (IL-13Rα1), biotinylated ectodomain (human) (UniProt P78552)
- procedure.details: SPR (Biacore T100), biotinylated receptor on SA chip, equilibrium KD
reported.metric: pKd
Formally, pKd is defined as -log10 of the concentration c, with c in mol/L.

Below: 3 binders and their reported pKd.
binder: C9 (ligand, also called IL-13 variant C9 (L10H, R11L, V18I, R86K, D87E, K89R, L101N, K105T, R108K)) cytokine: PGPVPPSTAHLELIEELINITQNQKAPLCNGSMVWSINLTAGMYCAALESLINVSGCSAIEKTQRMLSGFCPHKVSAGQFSSLHVKETRIEVAQFVKDLLNHLKTLFKEGQFN
reported.metric: pKd
value.reported: 4.51
//
binder: C10 (ligand, also called IL-13 variant C10 (L10H, R11L, V18I, R86M, K89R, R108K)) cytokine: PGPVPPSTAHLELIEELINITQNQKAPLCNGSMVWSINLTAGMYCAALESLINVSGCSAIEKTQRMLSGFCPHKVSAGQFSSLHVMDTRIEVAQFVKDLLLHLKKLFKEGQFN
reported.metric: pKd
value.reported: 6.58
//
binder: IL-13 variant C4 (L10V, K89R, L101N, K105E, R108T) (ligand, the first is used here; also called polypeptide C4) PGPVPPSTAVRELIEELVNITQNQKAPLCNGSMVWSINLTAGMYCAALESLINVSGCSAIEKTQRMLSGFCPHKVSAGQFSSLHVRDTRIEVAQFVKDLLNHLKELFTEGQFNHHHHHH
reported.metric: pKd
value.reported: 4.44

Here is another binder to look at.
### Prompt Please give measured pKd of the following entry: IL-13 variant C11 (IL-13Rα2-selective IL-13 superkine; L10H, R86T, D87G, T88R, R108K) (ligand, the first is used here; Made in insect Hi5 cells; also called polypeptide C11) PGPVPPSTAHRELIEELVNITQNQKAPLCNGSMVWSINLTAGMYCAALESLINVSGCSAIEKTQRMLSGFCPHKVSAGQFSSLHVTGRKIEVAQFVKDLLLHLKKLFKEGQFNHHHHHH
### Response 5.80
